These measurements were taken from the supplement of paper PMC10567573.

Kindly supply the reported protein stability index values for the records listed here.
experiment_notes: protein stability index of a GFP-peptide fusion (GPS, HEK-293T) (PSI 1-6); higher = more stable;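 further: 24-mer peptide tiles fused after GFP, lentivirally expressed, FACS-sorted into six equal bins by GFP/DsRed ratio, decoded by Illumina sequencing, PSI is the read-weighted mean bin number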
condition: treatment: MLN4924 1 uM, 8 h; c terminus: a fixed tail appended
Numbers only.

Known results for sequences:
biopolymer_sequence | protein stability index
AMPPYGQGPPMVPPYQGGPPRPPM [ZNF207] | 3.92
FYTCASHVTVVILFFVPCIFLYAR [OR4A15] | 3.08
MRRGAPQDQELVGPGPPGRGSRGA [MOSPD3] | 5
SPSPSSRVTVSRASSSRSVRTTRG [LMNB1] | 5.12
AFGYFITACAVIILTIICYLGLPR [SLC29A1] | 2.32

Hi team, please reply with protein stability index for each item in this list.
1. VVNHLSCDEARNHYGGVVSLIPLI [SPACA9]
2. VNEFSLKGVDFQKFCMNGAALCAL [ETS1]

Result:
[2.12, 2.3]

Report protein stability index for each item below.
1. SMDIARGLMVTCGTDRIVKIWDMT [WDFY1]
2. TSLRLVFLLAFGLMIIVCIDQWKN [RETREG3]
3. SCLKAIVLFTSDACGLSDVAHVES [NR2F2]
4. VSYQLADGGEPQSVQVDGQARTQK [TNXB]
5. RHDVIVSIVTAAKKDILLVNDHLL [PDS5B]
6. ESSTREVVFPYTSKSCMRAVLEYL [RHOBTB2]
7. QEHPRQQLATSSFLLFLLTGIVSV [MOSPD3]

Result:
[1.92, 2.03, 2.08, 5.21, 2.29, 2.32, 2.83]
